tested on: primary cortico-hippocampal neuron cultures; assay: lactate dehydrogenase (LDH) activity assay in parallel neuron cultures; details: Primary Screening; table sorted by Aβ1-40
Counter-ions that a name gives are not always drawn.
ASSAY METRIC: LDH (% of ctl)

Examples with their reported LDH (% of ctl) follow.
molecule="CCC[C@H](N[C@@H](C)C(=O)N1[C@H](C(=O)O)C[C@@H]2CCCC[C@@H]21)C(=O)OCC [Perindopril Erbumine]" result="72.5 % of ctl"
molecule="Cc1cc(C(C)(C)C)c(O)c(C)c1CC1=NCCN1 [Oxymetazoline Hydrochloride]" result="97.0 % of ctl"

Item C=CCc1ccccc1OCC(O)CNC(C)C (centres unmarked) [Alprenolol] : provide LDH (% of ctl)
128.0 % of ctl

Item O=c1oc2ccccc2c(O)c1Cc1c(O)c2ccccc2oc1=O [Dicumarol] : provide LDH (% of ctl)
93.3 % of ctl

Item CC(C)(C)NCC(O)COc1cccc2c1CC(O)C(O)C2 (centres unmarked) [Nadolol] : provide LDH (% of ctl)
106.5 % of ctl

Ref: patent US20100029654A1
